- Test system: Cryptococcus neoformans
MEASURED_QUANTITY: MIC (µg/mL)
Express the result in µg/mL but write the number alone.

C/C=C1\NC(=O)[C@H]([C@H](C)O)NC(=O)[C@H](CCNC(=O)OCOC(=O)C(C)C)NC(=O)[C@H](CCCCNC(=O)OCOC(=O)C(C)C)NC(=O)[C@H](CC(N)=O)NC(=O)[C@@H](CCNC(=O)OCOC(=O)C(C)C)NC(=O)[C@@H](NC(=O)C[C@H](O)CCCCCCCCCCC)COC(=O)[C@H]([C@H](O)CCl)NC(=O)[C@H]([C@H](O)C(=O)O)NC1=O	20

Shifting focus to the compound that follows.
Sample C/C=C1\NC(=O)[C@H]([C@H](C)O)NC(=O)[C@H](CCNC(=O)OCOC(=O)C(C)C)NC(=O)[C@H](CCCCNC(=O)OCOC(=O)C(C)C)NC(=O)[C@H](CC(=O)NC(C)(C)CC)NC(=O)[C@@H](CCNC(=O)OCOC(=O)C(C)C)NC(=O)[C@@H](NC(=O)C[C@H](O)CCCCCCCCCCC)COC(=O)[C@H]([C@H](O)CCl)NC(=O)[C@H]([C@H](O)C(=O)O)NC1=O , system: Cryptococcus neoformans. Its MIC is 20

---

- EXPERIMENTAL_DETAILS: The compound was tested for toxicity in tail vein irritation model; No
- TEST_CONTEXT: mouse
MEASURED_QUANTITY: Toxicity

C/C=C1\NC(=O)[C@H]([C@H](C)O)NC(=O)[C@H](CCNC(=O)OCOC(=O)C(C)(C)C)NC(=O)[C@H](CCCCNC(=O)OCOC(=O)C(C)(C)C)NC(=O)[C@H](CC(=O)NCC(=O)OC)NC(=O)[C@@H](CCNC(=O)OCOC(=O)C(C)(C)C)NC(=O)[C@@H](NC(=O)C[C@H](O)CCCCCCCCCCC)COC(=O)[C@H]([C@H](O)CCl)NC(=O)[C@H]([C@H](O)C(=O)O)NC1=O	Not toxic
C/C=C1\NC(=O)[C@H]([C@H](C)O)NC(=O)[C@H](CCNC(=O)OCOC(=O)C(C)C)NC(=O)[C@H](CCCCNC(=O)OCOC(=O)C(C)C)NC(=O)[C@H](CC(=O)NC2CC2)NC(=O)[C@@H](CCNC(=O)OCOC(=O)C(C)C)NC(=O)[C@@H](NC(=O)C[C@H](O)CCCCCCCCCCC)COC(=O)[C@H]([C@H](O)CCl)NC(=O)[C@H]([C@H](O)C(=O)O)NC1=O	Not toxic
C/C=C1\NC(=O)[C@H]([C@H](C)O)NC(=O)[C@H](CCNC(=O)OCOC(=O)C(C)(C)C)NC(=O)[C@H](CCCCNC(=O)OCOC(=O)C(C)(C)C)NC(=O)[C@H](CC(=O)NC2CC2)NC(=O)[C@@H](CCNC(=O)OCOC(=O)C(C)(C)C)NC(=O)[C@@H](NC(=O)C[C@H](O)CCCCCCCCCCC)COC(=O)[C@H]([C@H](O)CCl)NC(=O)[C@H]([C@H](O)C(=O)O)NC1=O	Not toxic

---

- EXPERIMENTAL_DETAILS: The compound was tested for toxicity in tail vein irritation model; No
- TEST_CONTEXT: mouse
Bridge positions count the residues as written; N and C are the ends. Square brackets hold non-standard residues; d marks the D form. Side chains are listed from the residue outwards. Peptide text beside a SMILES is read from it. * marks the point of attachment. Tetradecanoyl(3R-OH) = CCCCCCCCCCC[C@@H](O)CC(=O)*; Asp(3S-OH) = N[C@H](C(=O)O)[C@H](O)C(=O)O; Thr(4-Cl) = N[C@H](C(=O)O)[C@H](O)CCl; aThr = C[C@H](O)[C@H](N)C(=O)O; dDab = NCC[C@@H](N)C(=O)O; Dab = NCC[C@H](N)C(=O)O; Dhb = C/C=C(\N)C(=O)O; NHcPr = C1CC1N*
MEASURED_QUANTITY: Toxicity

C/C=C1\NC(=O)[C@H]([C@H](C)O)NC(=O)[C@H](CCN)NC(=O)[C@H](CCCCN)NC(=O)[C@H](CC(=O)NC2CC2)NC(=O)[C@@H](CCN)NC(=O)[C@@H](NC(=O)C[C@H](O)CCCCCCCCCCC)COC(=O)[C@H]([C@H](O)CCl)NC(=O)[C@H]([C@H](O)C(=O)O)NC1=O ({Tetradecanoyl(3R-OH)}-S[dDab]D(NHcPr)K[Dab][aThr][Dhb][Asp(3S-OH)][Thr(4-Cl)]; ester 1-C)	Not toxic
C/C=C1\NC(=O)[C@H]([C@H](C)O)NC(=O)[C@H](CCN)NC(=O)[C@H](CCCCN)NC(=O)[C@H](CC(=O)NCC(=O)OC)NC(=O)[C@@H](CCN)NC(=O)[C@@H](NC(=O)C[C@H](O)CCCCCCCCCCC)COC(=O)[C@H]([C@H](O)CCl)NC(=O)[C@H]([C@H](O)C(=O)O)NC1=O ({Tetradecanoyl(3R-OH)}-S[dDab]D([Gly-OMe])K[Dab][aThr][Dhb][Asp(3S-OH)][Thr(4-Cl)]; ester 1-C)	Not toxic
C/C=C1\NC(=O)[C@H]([C@H](C)O)NC(=O)[C@H](CCNC(=O)OCOC(=O)C(C)C)NC(=O)[C@H](CCCCNC(=O)OCOC(=O)C(C)C)NC(=O)[C@H](CC(N)=O)NC(=O)[C@@H](CCNC(=O)OCOC(=O)C(C)C)NC(=O)[C@@H](NC(=O)C[C@H](O)CCCCCCCCCCC)COC(=O)[C@H]([C@H](O)CCl)NC(=O)[C@H]([C@H](O)C(=O)O)NC1=O	Not toxic

Where do these numbers come from? They come from ChEMBL document CHEMBL1134142.
